The reader will find reported CC50 values listed item by item below.
- assayProtocol: Cytotoxicity against human HuH7 cells
- Type: cell-based, Huh-7

| compound | CC50 |
| --- | --- |
| C=Cc1cc(C(NC(=O)OC(C)(C)C)C(=O)Nc2cccc(C(=O)NS(=O)(=O)c3ccc(C(F)(F)F)cc3)c2)ccc1Oc1cc(OC)nc(-c2ccccc2)n1 (stereo not drawn) | ≥ 50 µM |
| C=CCCCS(=O)(=O)NC(=O)c1ccccc1NC(=O)C(NC(=O)[C@@H](NC(=O)OC(C)(C)C)C(C)(C)C)c1ccc(Oc2cc(OC)nc(-c3ccccc3)n2)c(C=C)c1 (mixture of isomers) | ≥ 50 µM |
| C=Cc1cc([C@H](NC(=O)[C@@H](NC(=O)OC(C)(C)C)C(C)(C)C)C(=O)Nc2cccc(C(=O)NS(=O)(=O)c3ccc(C(F)(F)F)cc3)c2)ccc1Oc1cc(OC)nc(-c2ccccc2)n1 | ≥ 50 µM |

Cited source: ChEMBL document CHEMBL3124859
